experimental.protocol: chemical genetic growth profiling, strain panel (AID 1159580);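 also: tested at 20 µM; growth read once vehicle control cultures reached saturation at 30 °C; 1 = growth at the plate median or of vehicle wells; lower values mean less growth of the strain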
condition.context: S. cerevisiae deletion strains, growth OD, locus YOR290C, strain snf2
Among all 5,500 compounds or so, about 2,000 (36%) were called active. Another 18% or so got no clear call; they are omitted. Rule as the data show it: active = normalized growth mostly below about 0.91 (no sharp cut-off); inconclusive = no clear call, values can overlap the other calls; inactive = mostly above about 0.92. This is one part of the list.
Bench note: report the call from 1.0 for active, 0.0 for inactive

INSERT INTO measurements (molecule, cat) VALUES
  ('CCOC(=O)C(C)(C)Oc1ccc(Cl)cc1', 0.0),
  ('COc1ccc2c3c1O[C@H]1C[C@@H](O)C=C[C@@]31CCN(C)C2', 0.0),
  ('ClC1=C(Cl)C2(Cl)C3C(Cl)C=CC3C1(Cl)C2(Cl)Cl (stereo not drawn)', 0.0),
  ('CC(Oc1ccccc1)C(=O)N[C@@H]1C(=O)N2[C@@H]1SC(C)(C)[C@@H]2C(=O)O (stereo partly drawn)', 0.0),
  ('CCCCCCNC(=O)n1cc(F)c(=O)[nH]c1=O', 1.0),
  ('NC(=O)c1ccc[n+]([C@@H]2O[C@H](COP(=O)([O-])OP(=O)(O)OC[C@H]3O[C@@H](n4cnc5c(N)ncnc54)[C@H](O)[C@@H]3O)[C@@H](O)[C@H]2O)c1', 0.0);

Input: Could you please tell me the result logged for COc1ccc2c(C)cc(=O)oc2c1 in this assay?
Output: 0.0

Input: Identify the outcome logged in this assay for the molecule shown: CN1CCCN=C1COC(=O)C(O)(c1ccccc1)C1CCCCC1 (stereo not drawn)
Output: 0.0

Input: Please share the test call associated with CN1CCc2cc3c(cc2[C@H]1C1OC(=O)c2c1ccc1c2OCO1)OCO3 (stereo partly drawn) .
Output: 0.0

====

experimental.protocol: chemical genetic growth profiling, strain panel (AID 1159580);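 also: tested at 20 µM; growth read once vehicle control cultures reached saturation at 30 °C; 1 = growth at the plate median or of vehicle wells; lower values mean less growth of the strain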
condition.context: S. cerevisiae deletion strains, growth OD, locus YER155C, strain BEM2 (second series), stronger effect = lower value
Screen size: about 5,500 compounds; about 2,000 (36%) were called active. About 18% were inconclusive and are not listed. Some of the results follow.
Give normalized growth for every item shown.

Worked set:
INSERT INTO measurements (molecule, readout_type, result) VALUES
  ('COc1cc2c(cc1OC)[C@@H]1C(=O)c3ccc(O)c(CC=C(C)C)c3O[C@@H]1CO2', 'normalized growth', '0.979 (inactive)'),
  ('CS(=O)(=O)c1ccc(C2=C(c3ccccc3)C(=O)OC2)cc1', 'normalized growth', '0.98 (inactive)'),
  ('COc1cc2c(cc1OC)[C@@H]1C(=O)c3ccc4oc(C(C)C)cc4c3O[C@@H]1CO2', 'normalized growth', '0.973 (inactive)');

I need normalized growth for every entry listed below, if you could help.
1. CC1(C)OC(=O)NC1=O
2. COc1ccc2c(c1)O[C@@H]1COc3cc(OC)c(OC)cc3[C@@H]1C2=O
3. CCOC(=O)C(Cc1ccc(O)cc1)NC(C)=O (stereo unspecified)

Output:
["0.972 (inactive)", "0.163 (active)", "1.04 (inactive)"]

====

Please go through the items and note down their normalized growth.
experimental.protocol: chemical genetic growth profiling, strain panel (AID 1159580);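 also: tested at 20 µM; growth read once vehicle control cultures reached saturation at 30 °C; 1 = growth at the plate median or of vehicle wells; lower values mean less growth of the strain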
condition.context: S. cerevisiae deletion strains, growth OD, locus YPL055C, strain LGE1, stronger effect = lower value
Out of some 5,500 compounds screened, about 2,000 (36%) were called active. About 18% were inconclusive and are not listed. The list shows a part of the results.
Numbers only.

Before answering, review these 3 worked examples.
INSERT INTO assay_data (compound, readout_type, result_number) VALUES
  ('Cc1ccc(NC(=S)NNC(C)(C)C)cc1', 'normalized growth', 0.894),
  ('CCOC(=O)c1c(C)cc(O)c(C)c1O', 'normalized growth', 0.954),
  ('CC1CC2C3CC(F)C4=CC(=O)C=CC4(C)C3(F)C(O)CC2(C)C1(O)C(=O)CO (stereo unspecified)', 'normalized growth', 1.09);

# map each compound to its normalized growth
1. CCOC(=O)c1[nH]c(Cc2[nH]c(C(=O)OCC)c(C)c2C)c(C)c1C
2. COc1ccc2c(c1OC)C(=O)O[C@H]2[C@H]1c2cc3c(cc2CCN1C)OCO3

Output:
[0.994, 0.986]

List the reported normalized growth of each compound below.
1. COc1ccc2c(c1OC)C(=O)O[C@@H]2[C@H]1c2cc3c(cc2CCN1C)OCO3
2. Cc1cccc(C)c1NC(=O)C(C)Oc1ccc(Cl)cc1Cl (stereo unspecified)
3. CCC(C)C(OC(C)=O)C(=O)OC1C(O)C2C3(C)C=CC(=O)C(C)(C)C3CC(OC(=O)C(O)C(C)C)C2(C)C23OC2CC(c2ccoc2)C13C (stereo unspecified)
4. CC(=O)OCC(=O)[C@@]1(O)CCC2C3CCC4=CC(=O)CC[C@]4(C)C3C(=O)C[C@@]21C (stereo partly specified)
5. Nc1nc2ccc(OC(F)(F)F)cc2s1

Output:
1. 1.03
2. 1.04
3. 1.05
4. 1
5. 0.829

For each entry beneath this line, provide reported normalized growth.
1. COC1=CC(=O)C[C@@H](C)[C@]12Oc1c(Cl)c(OC)cc(OC)c1C2=O
2. O=C(O)C1(O)C[C@@H](O)C(O)[C@H](O)C1 (stereo partly specified)
3. Oc1cc2c(c(Cl)c1O)CCNCC2c1ccccc1 (stereo unspecified)
4. CCCS(=O)(=O)c1c(C)c(C)n(Cc2ccccc2)c1N
5. COc1cc(/C=C2\NC(=O)NC2=O)ccc1O
6. C[C@H]1CC2C([C@@H](O)C[C@@]3(C)C2CC[C@]3(O)C(=O)CO)[C@@]2(C)C=CC(=O)C=C12 (stereo partly specified)

Output:
0.985
1.01
0.57
1.06
0.999
0.982
